Target Of Assay: Peptidyl-prolyl cis-trans isomerase NIMA-interacting 1 (Homo sapiens)
Method: qHTS Validation Assay to Find Inhibitors of Pin1 (AID 504536)
Condition Notes: Pin1 fluorescence polarization peptide binding assay; series mostly up to 57.5 µM
Results filed as inconclusive are left out. Activity calls are given as the source filed them. The call rests on the fitted dose curve; in most records, active means well fitted inhibition curve with a large enough effect in the polarisation, with a control signal flat (not every such curve was filed as active); inconclusive means small, poorly fitted or top-dose-only effect, or effect the other way; inactive means flat fitted curve, though single readings scatter; the % refers to the polarisation.
Outcomes: t = active, f = inactive

Compound	Category
NCC1(CC(=O)O)CCCCC1	f
CCCN1CCC[C@@H]2Cc3nc(N)ncc3C[C@H]21	f
CCCN1CCC[C@@H]2Cc3[nH]ncc3C[C@H]21	f
COc1ccc(C(CN(C)C)C2(O)CCCCC2)cc1 (stereo not drawn)	f
CCCC(C)(COC(N)=O)COC(=O)NC(C)C (stereo not drawn)	f
C[C@@H]1O[C@@H](O[C@H]2C[C@@H](O)[C@]3(CO)[C@H]4[C@H](O)C[C@]5(C)[C@@H](C6=CC(=O)OC6)CC[C@]5(O)[C@@H]4CC[C@]3(O)C2)[C@H](O)[C@H](O)[C@H]1O	f
CC(C)=CCOc1c2occc2cc2ccc(=O)oc12	f
N#CC(C#N)=Cc1ccc(O)c(O)c1	f
CCC1(C2=NCCN2)Cc2ccccc2O1 (stereo not drawn)	f
CC(=O)[C@H]1CC[C@H]2[C@@H]3CC[C@H]4C[C@](C)(O)CC[C@]4(C)[C@H]3CC[C@]12C	f
O=C1NCN(c2ccccc2)C12CCN(CC1COc3ccccc3O1)CC2 (stereo not drawn)	f
O=c1[nH]c2ccccc2n1CCCN1CCC(n2c(=O)[nH]c3cc(Cl)ccc32)CC1	f
C=C(C)[C@H]1Cc2c(ccc3c2O[C@@H]2COc4cc(OC)c(OC)cc4[C@@H]2C3=O)O1	f
COc1ccccc1N1CCNCC1	f
NCC(O)c1ccc(O)cc1 (stereo not drawn)	f
Nc1ccncc1	f
Fc1ccc(C(OCCN2CCN(CCCc3ccccc3)CC2)c2ccc(F)cc2)cc1	f
O=c1[nH]c2ccccc2n1C1CCN(CCCC(c2ccc(F)cc2)c2ccc(F)cc2)CC1	f
CC(=O)[C@H]1CC[C@H]2[C@@H]3CC[C@H]4C[C@H](O)CC[C@]4(C)[C@H]3C(=O)C[C@]12C	f
c1ccc2c(c1)OCC(C1=NCCN1)O2 (stereo not drawn)	f
Cc1ncc(CNC(=O)N(CCCl)N=O)c(N)n1	f
CC(O)(CS(=O)(=O)c1ccc(F)cc1)C(=O)Nc1ccc(C#N)c(C(F)(F)F)c1 (stereo not drawn)	f
Cc1cc2c(C(C)C)c(O)c(O)c(C=O)c2c(O)c1-c1c(C)cc2c(C(C)C)c(O)c(O)c(C=O)c2c1O	t

---

Target Of Assay: Cytochrome P450 2C9 (Homo sapiens) (UniProt P11712)
Sequence (P11712 whole entry, looked up): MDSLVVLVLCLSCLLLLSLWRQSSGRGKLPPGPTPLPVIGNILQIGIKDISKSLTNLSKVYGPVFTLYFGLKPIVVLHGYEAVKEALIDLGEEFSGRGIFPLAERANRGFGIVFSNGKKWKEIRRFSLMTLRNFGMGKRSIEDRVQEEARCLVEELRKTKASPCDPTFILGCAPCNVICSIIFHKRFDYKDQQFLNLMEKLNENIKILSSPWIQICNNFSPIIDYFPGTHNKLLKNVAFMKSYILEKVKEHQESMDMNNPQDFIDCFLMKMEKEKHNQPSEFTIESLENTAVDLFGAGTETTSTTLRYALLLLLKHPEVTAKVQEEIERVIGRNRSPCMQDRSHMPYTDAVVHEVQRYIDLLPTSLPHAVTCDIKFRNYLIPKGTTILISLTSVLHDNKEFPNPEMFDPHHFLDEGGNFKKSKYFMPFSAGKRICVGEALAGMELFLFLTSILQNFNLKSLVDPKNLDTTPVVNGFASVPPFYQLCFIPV
Method: Cytochrome P450 family 2 subfamily C member 9 (CYP2C9) small molecule antagonists: luciferase biochemical (cell-free) qHTS assay (AID 1645842); further: nearly all actives have a fitted effect of over 55% in size
Condition Notes: P450-Glo CYP2C9 enzyme assay, luciferin luminescence; series mostly up to 57.4 µM
Excerpt: National Center for Advancing Translational Sciences [NCATS] Assay Overview: Cytochrome P450 (CYP) enzymes are membrane-bound hemeproteins that play a key role in metabolism of drugs and xenobiotics. Assaying the effect of chemicals on CYP isozymes is useful to minimize the adverse drug reactions and toxicities in drug development process. […] The luciferin products formed are detected with a luciferin detection reagent, and the amount of light produced is proportional to CYP activity. […]
Records with an inconclusive call do not appear. The source made the active and inactive calls. Calls come from the whole dose curve; as a rule, active = well fitted inhibition curve with a large enough effect in the repeat runs; inconclusive = weak or mixed curves; inactive = no such curve, though single readings can be large or run the other way.
Outcomes: active, inactive

Compound	Category
CC(C)=CCOc1c2occc2cc2ccc(=O)oc12	active
NCCc1cc(O)c(O)cc1O	inactive
CC(=O)[C@H]1CC[C@H]2[C@@H]3CC[C@H]4C[C@](C)(O)CC[C@]4(C)[C@H]3CC[C@]12C	inactive
O=c1oc2ccccc2c(O)c1C(CC(O)c1ccc(-c2ccc(Br)cc2)cc1)c1ccccc1 (stereo not given)	active
N[C@@H](Cc1ccc(Oc2cc(I)c(O)c(I)c2)c(I)c1)C(=O)O	active
CC[C@@H](CO)NC(=O)[C@@H]1C=C2c3cccc4[nH]cc(c34)C[C@H]2N(C)C1	inactive
CCOC(=O)C1(c2ccccc2)CCN(CCC(C#N)(c2ccccc2)c2ccccc2)CC1	active
CC(C)=CC1C(C(=O)OCc2cccc(Oc3ccccc3)c2)C1(C)C (stereo not given)	active
c1ccc2c(c1)Nc1ccccc1S2	inactive
Cc1ccc2c(c1)C1CN(C)CCC1N2 (stereo not given)	inactive
CC(C)(N)Cc1ccc(Cl)cc1	inactive
COc1ccc(Cc2nccc3cc(OC)c(OC)cc23)cc1OC	active
CCC(=O)C(CC(C)N(C)C)(c1ccccc1)c1ccccc1 (stereo not given)	inactive
O=[N+]([O-])c1cc([As](=O)(O)O)ccc1O	inactive
Cn1cc(C2=C(c3cn(C4CCN(Cc5ccccn5)CC4)c4ccccc34)C(=O)NC2=O)c2ccccc21	active
CN1C(=S)CN=C(c2ccccc2)c2cc(Cl)ccc21	active
COc1ccc2c(c1OC)CN1CCc3cc4c(cc3C1C2)OCO4 (stereo not given)	active
c1ccc(C2CC2)c(OCC2=NCCN2)c1	inactive
CC[N+]1(C)CCCC(OC(=O)C(O)(c2ccccc2)c2ccccc2)C1 (stereo not given)	inactive
Clc1ccc(CCC(Cn2ccnc2)Sc2c(Cl)cccc2Cl)cc1 (stereo not given)	active
COc1ccc(C(=O)c2c(C)n(CCN3CCOCC3)c3ccccc23)cc1	active
NN=C(N)N	inactive
CN1C[C@H](CNC(=O)OCc2ccccc2)C[C@@H]2c3cccc4c3c(cn4C)C[C@H]21	inactive
CCC(C(N)=O)N1CCCC1=O (stereo not given)	inactive
CCN(CC)CCOC(=O)C(O)(c1ccccc1)c1ccccc1	inactive
Cc1ccc(-c2nc3ccc(C)cn3c2CC(=O)N(C)C)cc1	inactive
CC(CCc1ccccc1)NC(C)C(O)c1ccc(O)cc1 (stereo not given)	inactive
C[C@]12CCC(=O)C(O)=C1CC[C@@H]1[C@@H]2CC[C@]2(C)C(=O)CC[C@@H]12	inactive
C#CCN(C)[C@H](C)Cc1ccccc1	inactive
C[C@H]1O[C@@H](O[C@H]2[C@@H](O)C[C@H](O[C@H]3[C@@H](O)C[C@H](O[C@H]4CC[C@@]5(C)[C@H](CC[C@@H]6[C@@H]5CC[C@]5(C)[C@@H](C7=CC(=O)OC7)CC[C@]65O)C4)O[C@@H]3C)O[C@@H]2C)C[C@H](O)[C@@H]1O	inactive
CNC(=O)c1ccc(N2C(=S)N(c3ccc(C#N)c(C(F)(F)F)c3)C(=O)C23CCC3)cc1F	active
CC1NCCOC1c1ccccc1 (stereo not given)	inactive
CC(C)CC(N(C)C)C1(c2ccc(Cl)cc2)CCC1 (stereo not given)	inactive
O=C(O)c1ccc2[nH]cc(CCCCN3CC=C(c4ccccc4)CC3)c2c1	inactive
CNCC(O)c1ccc(O)cc1 (stereo not given)	inactive
O=C1NCN(c2ccccc2)C12CCN(CC1COc3ccccc3O1)CC2 (stereo not given)	active
CC[N+](CC)(CC)CC	inactive
CN1CCN(C(=O)O[C@H]2c3nccnc3C(=O)N2c2ccc(Cl)cn2)CC1	inactive
C[C@@H]1O[C@@H](O[C@H]2C[C@@H](O)[C@]3(CO)[C@H]4[C@H](O)C[C@]5(C)[C@@H](C6=CC(=O)OC6)CC[C@]5(O)[C@@H]4CC[C@]3(O)C2)[C@H](O)[C@H](O)[C@H]1O	inactive
Clc1cccc(N2CCNCC2)c1	inactive
c1ccc2c(c1)OCC(C1=NCCN1)O2 (stereo not given)	inactive
CC(=O)Nc1cc([As](=O)(O)O)ccc1O	inactive
O=C(O)C(=O)c1cn(Cc2ccccc2)c2ccc(-c3ccc(OC(F)(F)F)cc3)cc12	active
Cc1cccc(C)c1NC1=NCCCS1	inactive
N#CC(C#N)=Cc1ccc(O)c(O)c1	inactive
